quantity measured: melting point

Before answering, review these 5 worked examples.
{"molecule": "CCOC(COc1ccc2c(-c3ccccc3F)noc2c1Cl)OCC", "quantity measured": "melting point", "data value": "59 °C"}
{"molecule": "COc1ccc(S(=O)(=O)N2c3ccc(Br)cc3-c3ccccc3C2C)cc1 (stereo not given)", "quantity measured": "melting point", "data value": "192 to 194 °C"}
{"molecule": "CCc1cc(CC)c(-c2c(O)c(C)nn(C)c2=O)c(CC)c1Cl", "quantity measured": "melting point", "data value": "225 to 226 °C"}
{"molecule": "CCCCN1C[C@H](CO)[C@@H](O)[C@H](O)C1", "quantity measured": "melting point", "data value": "94 to 95 °C"}
{"molecule": "CCOC(=O)c1cn(Cc2ccccc2)nc1OCc1cccc(OCc2nc(-c3ccco3)oc2C)c1", "quantity measured": "melting point", "data value": "92 to 93 °C"}

I have this molecule here, "CNc1nc(C(F)(F)F)cc(=O)n1-c1c(Cl)cc(C(F)(F)F)cc1Cl" , and I need its recorded melting point.
211 to 214 °C

I have this molecule here, "C/C=C/CNC(=O)N1CC(Oc2ccc(C(F)(F)F)cc2)C1" , and I need its recorded melting point.
157 to 158 °C

I have this molecule here, "CC(=O)OCc1cc([N+](=O)[O-])ccc1N1C(=O)c2ccc(Cl)cc2C1=O" , and I need its recorded melting point.
124 to 125 °C

I have this molecule here, "CCCCCC(=O)Nc1ccc2ccn(Cc3ccc(C#N)cc3OC)c2c1" , and I need its recorded melting point.
136 to 138 °C

I have this molecule here, "COC(=O)c1cn(-c2ccc3ccccc3c2)cn1" , and I need its recorded melting point.
143 to 144 °C

I have this molecule here, "C=CCCCc1cc(-c2ccc(F)cc2)nc(C)n1" , and I need its recorded melting point.
44.5 to 45.5 °C

I have this molecule here, CC(=O)c1ccc2c(c1)[C@@H](N1CCCC1=O)[C@H](O)C(C)(C)O2 (relative stereo) , and I need its recorded melting point.
218 to 219 °C

I have this molecule here, "CC[C@H](C)OC(=O)COc1ccc(C(=O)[C@H](COC(C)(C)C)NC(=O)c2ccc(C(=N)NC(=O)OC(C)(C)C)cc2)cc1" , and I need its recorded melting point.
85 to 87 °C

---

quantity measured: melting point

Before answering, review these 5 worked examples.
{"molecule": "O=C(O)C1CN(S(=O)(=O)c2ccc3cc(Br)ccc3c2)CCN1C(=O)C1CCN(c2ccncc2)CC1 (stereo not given)", "quantity measured": "melting point", "data value": "216 to 222 °C"}
{"molecule": "CCNC(=O)c1cccc(NCC(=O)NCCc2ccc(OC)c(OC)c2)c1", "quantity measured": "melting point", "data value": "99 to 101 °C"}
{"molecule": "Cc1c(C(=O)c2ccccc2)[nH]c(CC(=O)O)c1C(=O)O", "quantity measured": "melting point", "data value": "250 to 253 °C"}
{"molecule": "COc1ccc2cc(CCC(C)O)cc(F)c2c1 (stereo not given)", "quantity measured": "melting point", "data value": "58 to 60 °C"}
{"molecule": "CN1CCN(c2ccc(Nc3cc(-c4cccc(N5CCc6c(cc7n6CCCC7)C5=O)c4CO)cn(C)c3=O)nc2)CC1", "quantity measured": "melting point", "data value": "180 to 181 °C"}

Attention now shifts to the item below.
I have this molecule here, CCN(CC)CCOc1ccc(C(O)(CC)c2cccc(Cl)c2)cc1 (stereo not given) , and I need its recorded melting point.
64 to 65 °C

---

Quick reference: melting point of the listed items.

{"molecule": "FC(F)(F)c1nc(-c2ccccc2)c(-c2ccccc2)s1", "data value": "94 to 97 °C"}
{"molecule": "CC(C)(C)c1ccc(NC(=O)OCC2(COC(=O)Nc3ccc(C(C)(C)C)cc3)CSc3ccccc3C2=O)cc1", "data value": "78 to 85 °C"}
{"molecule": "CNc1cccc2c1C(=O)c1ccccc1C2=O", "data value": "172 °C"}
{"molecule": "CCOc1nc2cc(C)nn2c2ccncc12", "data value": "156 °C"}
{"molecule": "O=[N+]([O-])c1cc(C(F)(F)F)cc([N+](=O)[O-])c1P(=O)(c1ccccc1)c1ccccc1", "data value": "214 to 215 °C"}
{"molecule": "c1ccc(-c2cc3nnc(-c4ccccc4)n3nc2OCc2cn[nH]n2)cc1", "data value": "208 to 220 °C"}
{"molecule": "O=C(c1c(F)cccc1F)N1CS(=O)CN(c2ccc(Cl)cc2)C1=O (stereo not given)", "data value": "220 °C"}
{"molecule": "O=C1C[C@@H](NC(=O)OCc2ccccc2)C(=O)O1", "data value": "126 to 127 °C"}
{"molecule": "CC(C)Cc1ccc(C(CC(=O)O)C(=O)O)s1 (stereo not given)", "data value": "106 to 108 °C"}

Attention now shifts to the item below.
I have this molecule here, "CNS(=O)(=O)c1ccc(Oc2ccc(N)cc2)cc1" , and I need its recorded melting point.
121 to 122 °C

---

Quick reference: melting point of the listed items.

Before answering, review these 5 worked examples.
{"compound": "CCOC(=O)C1=C(C)NC(COCCN2C(=O)c3ccccc3C2=O)=C(C(=O)OCC)C1c1ccccc1Cl (stereo not given)", "melting point": "142 to 144 °C"}
{"compound": "CC(C)Oc1cccc(-n2c(NC(=O)Nc3cccc(C(=O)O)c3)nc3ccccc3c2=O)c1", "melting point": "158 to 160 °C"}
{"compound": "CCN(C(=O)c1c(Cl)cccc1[Si](C)(C)C)C(OC)C(C)(C)C (stereo not given)", "melting point": "82 to 83 °C"}
{"compound": "CC(C)n1nc(-c2c(-c3ccccc3)nn3ccc(OCCc4ccccc4)cc23)ccc1=O", "melting point": "154 to 156 °C"}
{"compound": "CN(C)C(=O)OC1CCN(c2ncc(-c3ccccc3Cl)cn2)CC1", "melting point": "86 to 88 °C"}

I have this compound here, "CSCCCC(=O)C(=C1NCCCS1)[N+](=O)[O-]" , and I need its recorded melting point.
49 to 49.5 °C

I have this compound here, "Cc1cccc(Nc2cc(Nc3ccc(OCCO)cc3)ncn2)c1" , and I need its recorded melting point.
196 to 199 °C

I have this compound here, "Fc1cccc(Nc2nc(Cl)nc(NC3CCCCCC3)n2)c1" , and I need its recorded melting point.
148 °C

I have this compound here, "O=[N+]([O-])c1oc2ccc(CN3CCCC3)cc2c1-c1ccccc1" , and I need its recorded melting point.
111 to 112 °C

I have this compound here, "CCCCn1nc(Cc2ccc(-c3ccccc3-c3nnn[nH]3)cc2)c(C(=O)O)c1CC" , and I need its recorded melting point.
191 to 192 °C

I have this compound here, COc1cccc2c1OC(C(=O)Nc1ccncc1)C2CC(=O)OCc1ccccc1 (stereo not given) , and I need its recorded melting point.
165 to 166 °C

I have this compound here, "Cc1ccc(-c2ccc3c(=O)ccoc3c2)cc1" , and I need its recorded melting point.
159 to 160 °C

I have this compound here, "N#Cc1nn(-c2c(Cl)cc(C(F)(F)F)cc2Cl)cc1SC(F)(F)F" , and I need its recorded melting point.
126 to 128 °C

---

Quick reference: melting point of the listed items.

{"compound": "CCOC(=O)c1cn(C(C)CCl)c2c(F)c(F)c(F)cc2c1=O (stereo unspecified)", "melting point": "190 to 191 °C"}
{"compound": "COc1cc2c(c(OC(C)=O)c1)C1CCC3(C)C(OC(=O)C(F)(F)F)CCC3C1CC2 (stereo unspecified)", "melting point": "137 to 138 °C"}
{"compound": "CC1=C2OC(C)(C)OC2CC(C)(C)C1=O (stereo unspecified)", "melting point": "79 to 80 °C"}
{"compound": "CCNC(=O)NSC(=S)N(C)C", "melting point": "173 to 175 °C"}
{"compound": "CC(C)(C(=O)O)c1ccc(CCNC(=O)c2ccc(Cl)cc2)cc1", "melting point": "234 to 235 °C"}

I have this compound here, "C#CCOc1ccc(C=NOC)cc1OC" , and I need its recorded melting point.
68 to 69 °C

I have this compound here, "CC(=O)c1ccc2c(c1)CCS2(=O)=O" , and I need its recorded melting point.
54 to 56 °C

I have this compound here, "COc1cc(Nc2c(C#N)cnc3cc(C#CCCN4CCN(C)CC4)c(OC)cc23)c(Cl)cc1Cl" , and I need its recorded melting point.
165 to 167 °C

I have this compound here, CC(c1ccc(C=Cc2ccccc2)s1)N(O)C(N)=O (stereo unspecified) , and I need its recorded melting point.
160 to 163 °C

I have this compound here, COc1ccc(Oc2ccc3c(c2)C=C(C(=O)O)C(C(F)(F)F)O3)cc1Cl (stereo unspecified) , and I need its recorded melting point.
205 to 207 °C

I have this compound here, "CC(C)(C)OC(=O)NCc1ccccc1-c1ccc(CO)cc1" , and I need its recorded melting point.
89 to 93 °C
